Target: T1, human CD30 (commercial, conjugated to digoxigenin) (human, UniProt P28908 19-379, limits assumed, conjugated to digoxigenin (DIG))
T1 sequence (looked up): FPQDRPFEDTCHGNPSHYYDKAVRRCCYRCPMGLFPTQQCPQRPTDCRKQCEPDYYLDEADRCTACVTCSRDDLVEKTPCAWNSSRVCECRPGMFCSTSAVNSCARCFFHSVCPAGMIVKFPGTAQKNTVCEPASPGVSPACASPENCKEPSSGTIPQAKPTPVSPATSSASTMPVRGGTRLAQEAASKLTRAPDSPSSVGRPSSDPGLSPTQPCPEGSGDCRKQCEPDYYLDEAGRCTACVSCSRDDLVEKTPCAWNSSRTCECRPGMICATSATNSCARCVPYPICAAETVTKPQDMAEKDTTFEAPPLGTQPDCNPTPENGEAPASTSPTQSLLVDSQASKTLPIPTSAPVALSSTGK
Test: AlphaScreen competition vs biotin-WT AC10
Fold IC50 vs WT values, listed per item
Give a bare numeral; the unit fold is implied.

| Binder | Assay value |
| --- | --- |
| AC10 H3/L2 full length antibody (antibody, V domains shown) VH: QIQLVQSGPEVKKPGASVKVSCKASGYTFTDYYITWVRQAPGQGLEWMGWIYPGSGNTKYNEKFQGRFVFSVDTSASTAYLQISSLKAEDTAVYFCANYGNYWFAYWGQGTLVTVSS VL: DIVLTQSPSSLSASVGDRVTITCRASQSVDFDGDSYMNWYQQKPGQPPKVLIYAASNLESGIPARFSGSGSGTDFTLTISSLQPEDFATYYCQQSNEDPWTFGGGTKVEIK | 0.48 |
| AC10 H0/L3 full length antibody (antibody, V domains shown) VH: QIQLQQSGPEVVKPGASVKISCKASGYTFTDYYITWVKQKPGQGLEWIGWIYPGSGNTKYNEKFKGKATLTVDTSSSTAFMQLSSLTSEDTAVYFCANYGNYWFAYWGQGTQVTVSA VL: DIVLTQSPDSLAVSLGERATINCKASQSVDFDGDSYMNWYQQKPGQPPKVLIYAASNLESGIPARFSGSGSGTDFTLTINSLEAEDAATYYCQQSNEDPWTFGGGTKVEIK | 0.69 |

Now for the binder whose Fold IC50 vs WT we want.
Entry under test: AC10 H3/L1 full length antibody (antibody, V domains shown) VH: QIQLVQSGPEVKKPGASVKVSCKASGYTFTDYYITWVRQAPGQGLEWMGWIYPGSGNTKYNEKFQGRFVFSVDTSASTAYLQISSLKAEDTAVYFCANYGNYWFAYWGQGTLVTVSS VL: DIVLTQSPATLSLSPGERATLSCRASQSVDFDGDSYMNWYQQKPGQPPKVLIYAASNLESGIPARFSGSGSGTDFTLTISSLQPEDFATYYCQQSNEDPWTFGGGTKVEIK . Its Fold IC50 vs WT was 0.52
